- System: Lewis strain laboratory rats
- ASSAY PROTOCOL: In vivo alleviation of inflammation: polyarthritis (adjuvant, Mycobacterium butyricum) in rats, inhibition of paw volume increase
- COND: po, 336 h; 50 mpk p.o., rat; read-out: % INH. p.o. (percentage inhibition of pad swelling)
Measured inhibition in vivo at 50 mg/kg, listed per entry.
Please respond with the number in % and leave the unit unwritten.

Some compounds with known inhibition in vivo at 50 mg/kg results, for comparison:
The value of inhibition in vivo at 50 mg/kg measured for the compound COc1ccc(-n2nc(CCCO)cc2-c2ccccc2)cc1 turned out to be 30

Just so you know, measured inhibition in vivo at 50 mg/kg for OCCCc1cc(-c2ccc(Cl)cc2)n(-c2ccc(Cl)c(Cl)c2)n1 came out at 41

The reported value for OCCCc1cc(-c2ccccc2)n(-c2ccc(Cl)cc2)n1 in terms of inhibition in vivo at 50 mg/kg is 52

get_value(item= OCCCc1cc(-c2ccc(Cl)cc2)n(-c2ccc(Cl)cc2)n1 , readout=inhibition in vivo at 50 mg/kg) returns 68

Reported inhibition in vivo at 50 mg/kg for OCCCc1cc(-c2ccc(Cl)cc2)n(-c2ccc(F)cc2)n1 was 31

Others:
The recorded inhibition in vivo at 50 mg/kg for CC(=O)OCCCc1cc(-c2ccc(Cl)cc2)n(-c2ccccc2)n1 is 54

The compound OCCCc1cc(-c2ccc(Cl)cc2)n(-c2ccccc2)n1 showed inhibition in vivo at 50 mg/kg equal to 62

The compound listed as CS(=O)(=O)c1ccc(-n2nc(CCCO)cc2-c2ccc(Cl)cc2)cc1 shows inhibition in vivo at 50 mg/kg equal to 40

Reported inhibition in vivo at 50 mg/kg for COc1ccccc1-n1nc(CCCO)cc1-c1ccc(Cl)cc1 was 33

Entry source: patent US5164381A
